ASSAY_SYSTEM: Epidermal growth factor receptor (Homo sapiens, UniProt P00533, L858R)
Sequence (P00533 25-1210 L858R limits assumed): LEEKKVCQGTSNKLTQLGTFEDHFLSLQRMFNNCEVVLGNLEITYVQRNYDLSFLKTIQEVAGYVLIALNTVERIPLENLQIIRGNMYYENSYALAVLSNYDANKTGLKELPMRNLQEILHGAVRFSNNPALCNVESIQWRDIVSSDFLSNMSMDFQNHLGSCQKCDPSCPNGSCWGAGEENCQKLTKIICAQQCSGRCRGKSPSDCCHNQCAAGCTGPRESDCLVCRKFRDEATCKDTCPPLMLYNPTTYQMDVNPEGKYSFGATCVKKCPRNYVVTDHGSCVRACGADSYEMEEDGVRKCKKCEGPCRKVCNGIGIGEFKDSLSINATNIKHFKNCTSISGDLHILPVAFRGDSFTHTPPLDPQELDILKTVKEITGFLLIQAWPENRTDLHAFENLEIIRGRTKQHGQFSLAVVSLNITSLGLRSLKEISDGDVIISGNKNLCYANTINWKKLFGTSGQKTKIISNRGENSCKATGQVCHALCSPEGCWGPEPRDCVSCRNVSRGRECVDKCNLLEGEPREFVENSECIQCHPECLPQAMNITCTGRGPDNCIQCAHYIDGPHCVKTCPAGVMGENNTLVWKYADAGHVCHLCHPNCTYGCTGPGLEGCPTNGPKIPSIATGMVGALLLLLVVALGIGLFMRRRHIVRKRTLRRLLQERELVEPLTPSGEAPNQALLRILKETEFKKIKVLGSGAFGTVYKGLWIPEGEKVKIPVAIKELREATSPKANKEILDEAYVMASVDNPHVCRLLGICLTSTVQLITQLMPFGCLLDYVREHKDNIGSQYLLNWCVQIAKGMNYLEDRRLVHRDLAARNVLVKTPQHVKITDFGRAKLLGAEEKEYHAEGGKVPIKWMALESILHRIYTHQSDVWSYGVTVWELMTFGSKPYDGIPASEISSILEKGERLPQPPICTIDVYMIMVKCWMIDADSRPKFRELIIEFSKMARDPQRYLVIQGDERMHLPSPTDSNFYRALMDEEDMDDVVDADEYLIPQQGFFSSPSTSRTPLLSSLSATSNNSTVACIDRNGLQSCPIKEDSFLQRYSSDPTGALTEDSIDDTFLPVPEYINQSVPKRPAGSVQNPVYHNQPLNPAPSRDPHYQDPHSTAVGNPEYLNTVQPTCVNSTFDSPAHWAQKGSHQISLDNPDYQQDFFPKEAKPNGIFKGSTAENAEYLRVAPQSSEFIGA
METHOD_DESCRIPTION: Inhibition of human EGFR L858R mutant (696 to end residues) using poly (Glu, Tyr) 4:1 as substrate measured after 40 mins in presence of [gamma33P]ATP by scintillation counting analysis
REPORTED_METRIC: IC50 (µM)
Write down the numeric answer in µM and omit the unit.

// assay Epidermal growth factor receptor (Homo sapiens, UniProt P00533, L858R), entry O=C1Nc2ccccc2N/C1=C\C(=O)c1cccc2ccccc12 , IC50 value = 4.5

====

METHOD_DESCRIPTION: Cmax in APPswe/PS1dE9 double mutant-transgenic mouse at 30 mg/kg, ip administered as single dose by LC-MS/MS analysis
Type: ADME, organism-based
Design: dose 30 mg/kg, route intraperitoneal
CONDITION_INFO: in vivo
REPORTED_METRIC: Cmax (ng/mL)
The response must be a number in ng/mL with no trailing unit.

For record O=C1N/C(=N/c2ccccc2Cl)S/C1=C1\C(=O)Nc2ccc(F)cc21 the listed Cmax is 19200

====

METHOD_DESCRIPTION: Terminal half life in APPswe/PS1dE9 double mutant-transgenic mouse at 3 mg/kg, iv administered as single dose by LC-MS/MS analysis
Type: ADME, organism-based
CONDITION_INFO: in vivo, read-out: beta t1/2 (converted)
REPORTED_METRIC: half-life (h)
Give just the number in h; leave the unit off.

So, O=C1N/C(=N/c2ccccc2Cl)S/C1=C1\C(=O)Nc2ccc(F)cc21 ? Its half-life was 8.83

====

ASSAY_SYSTEM: Mitogen-activated protein kinase 10 (Homo sapiens)
Sequence (P53779 whole entry): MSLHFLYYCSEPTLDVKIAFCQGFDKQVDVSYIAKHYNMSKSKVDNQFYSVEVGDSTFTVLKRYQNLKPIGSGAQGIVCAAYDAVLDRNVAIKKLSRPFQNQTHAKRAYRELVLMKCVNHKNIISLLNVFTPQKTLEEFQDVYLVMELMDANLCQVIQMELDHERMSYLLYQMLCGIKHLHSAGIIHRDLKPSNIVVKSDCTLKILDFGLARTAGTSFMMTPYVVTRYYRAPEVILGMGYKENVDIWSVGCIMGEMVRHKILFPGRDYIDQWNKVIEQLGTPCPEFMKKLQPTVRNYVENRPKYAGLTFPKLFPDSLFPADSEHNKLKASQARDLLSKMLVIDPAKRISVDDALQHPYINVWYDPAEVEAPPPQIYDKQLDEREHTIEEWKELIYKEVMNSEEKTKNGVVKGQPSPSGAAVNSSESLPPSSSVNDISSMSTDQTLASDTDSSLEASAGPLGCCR
METHOD_DESCRIPTION: Inhibition of recombinant human full-length JNK3 at 10 uM using ATF2 as substrate measured after 40 mins in presence of [gamma33P]ATP by scintillation counting analysis relative to control
This section presents compounds with their documented inhibition values.

O=C1Oc2ccccc2N/C1=C\C(=O)c1ccc(Br)cc1 | 34%

Item: COc1ccc(/C=C\C(=O)c2c(-c3ccccc3)c3cc(C)ccc3[nH]c2=O)cc1 | System: Mitogen-activated protein kinase 10 (Homo sapiens) | inhibition: > 50%

Form field inhibition for item O=C1NC(N2CCOCC2)S/C1=C1\C(=O)Nc2ccc(Br)cc21 (configuration not stated) on Mitogen-activated protein kinase 10 (Homo sapiens): 22%

For O=C1Nc2ccccc2N/C1=C\C(=O)c1ccc(Cl)cc1 on Mitogen-activated protein kinase 10 (Homo sapiens), measured inhibition was 51%

inhibition of Cc1ccc(C(=O)/C=C2\Nc3ncc(Br)cc3NC2=O)cc1 , assay on Mitogen-activated protein kinase 10 (Homo sapiens), is 4%

Value sought: inhibition, system Mitogen-activated protein kinase 10 (Homo sapiens), item O=C1Nc2cc([N+](=O)[O-])ccc2N/C1=C\C(=O)c1ccc(Cl)cc1 . Result: 24%

Considering O=C1Nc2ccccc2N/C1=C\C(=O)c1ccco1 , its inhibition with Mitogen-activated protein kinase 10 (Homo sapiens) was recorded as 25%

The value of inhibition recorded for Cc1cccc2c1NC(=O)/C2=C1\S/C(=N\c2ccc(F)cc2)NC1=O when tested on Mitogen-activated protein kinase 10 (Homo sapiens) reads 24%

====

METHOD_DESCRIPTION: Bioavailability in APPswe/PS1dE9 double mutant-transgenic mouse at 30 mg/kg, ip administered as single dose by LC-MS/MS analysis
Assay type: ADME, organism-based
CONDITION_INFO: in vivo
REPORTED_METRIC: bioavailability (%)
Value expressed in %; do not type the unit.

Reported bioavailability ( O=C1N/C(=N/c2ccccc2Cl)S/C1=C1\C(=O)Nc2ccc(F)cc21 ) = 90.5
